Biological target: β-catenin/Tcf protein-protein interaction (Homo sapiens)
Construct: Wild-type β-catenin (residues 138-781) were cloned into a pET-28b vector; 6×histidine (C); made in house; host or cells: E. coli BL21 DE3
Assay: FP competitive inhibition assay
Format: binding
Conditions: Assay 3, mean ± SD (n = 3), read-out: Ki ± SD, Assay 3
Form field: Ki (one value per entry).
Kindly provide the numeric value in nM only, without the unit symbol.

- Cc1ccc(CCc2c(-c3ccsc3)n(CCc3nn[nH]n3)c3ccc(C(=O)O)cc23)cc1 [Compound 78]: 250

Form field Ki, entry O=C(O)c1ccc2c(c1)c(CCC1CCCCC1)c(-c1ccsc1)n2CCc1nn[nH]n1 [Compound 85] : 520

get_value(item= COc1ccc2sc(CCc3c(CCc4ccc(Cl)cc4)c4cc(C(=O)O)ccc4n3CCc3nn[nH]n3)nc2c1 [Compound 31] , readout=Ki) returns 4100

Form field Ki, entry COc1ccc2sc(CCc3c(CCc4ccc(Cl)cc4)c4cc(C(=O)OCc5ccc(Cl)cc5)ccc4n3CCc3nn[nH]n3)nc2c1 [Compound 70] : 2600

Measured Ki of O=C(O)c1ccc2c(c1)c(CCC1CCOCC1)cn2CCc1nn[nH]n1 [Compound 21] : 10000

Ki recorded for this molecule, Cc1ccc(CCc2c(-c3ccsc3)n(CCc3nn[nH]n3)c3ccc(C(=O)NCc4ccon4)cc23)cc1 [Compound 93] , is 13000

# molecule O=C(NCc1ccc(F)cc1)c1ccc2c(c1)c(CCc1ccc(F)cc1)c(CCc1nc3ccccc3s1)n2CCc1nn[nH]n1 [Compound 44] ; its Ki = 1300

The molecule listed as COc1ccc2sc(C#Cc3c(CCc4ccc(Cl)cc4)c4cc(C(=O)O)ccc4n3CCc3nn[nH]n3)nc2c1 [Compound 71] shows Ki equal to 340

// Ki lookup, molecule = O=C(O)c1ccc2c(c1)c(CCc1ccc(Cl)cc1)c(CCc1nc3cc(Cl)ccc3s1)n2CCc1nn[nH]n1 [Compound 30] , result: 2500

Query COCCOc1ccc2sc(CCc3c(CCc4ccc(Cl)cc4)c4cc(C(=O)O)ccc4n3CCc3nn[nH]n3)nc2c1 [Compound 32] yields Ki of 3700

Reported Ki for Cc1ccc(CCc2c(-c3csc(C(F)F)c3)n(CCc3nn[nH]n3)c3ccc(C(=O)NCc4ccon4)cc23)cc1 [Compound 94] was 26000

What the record says about COc1ccc2sc(CCc3c(CCc4ccc(Cl)cc4)c4cc(C(=O)Nc5ccc(Cl)cc5)ccc4n3CCc3nn[nH]n3)nc2c1 [Compound 47] : Ki is 2100

response.value for O=C(O)c1ccc2c(c1)c(CCc1ccc(Cl)cc1)c(CCc1nc3ccccc3s1)n2CCc1nn[nH]n1 [Compound 27] (field: Ki) = 5600

====

Molecular target: β-catenin/Tcf protein-protein interaction (Homo sapiens, UniProt P35222)
Construct: Wild-type β-catenin (residues 138-781) were cloned into a pET-28b vector; 6×histidine (C); made in house; host or cells: E. coli BL21 DE3
Sequence (P35222 138-781): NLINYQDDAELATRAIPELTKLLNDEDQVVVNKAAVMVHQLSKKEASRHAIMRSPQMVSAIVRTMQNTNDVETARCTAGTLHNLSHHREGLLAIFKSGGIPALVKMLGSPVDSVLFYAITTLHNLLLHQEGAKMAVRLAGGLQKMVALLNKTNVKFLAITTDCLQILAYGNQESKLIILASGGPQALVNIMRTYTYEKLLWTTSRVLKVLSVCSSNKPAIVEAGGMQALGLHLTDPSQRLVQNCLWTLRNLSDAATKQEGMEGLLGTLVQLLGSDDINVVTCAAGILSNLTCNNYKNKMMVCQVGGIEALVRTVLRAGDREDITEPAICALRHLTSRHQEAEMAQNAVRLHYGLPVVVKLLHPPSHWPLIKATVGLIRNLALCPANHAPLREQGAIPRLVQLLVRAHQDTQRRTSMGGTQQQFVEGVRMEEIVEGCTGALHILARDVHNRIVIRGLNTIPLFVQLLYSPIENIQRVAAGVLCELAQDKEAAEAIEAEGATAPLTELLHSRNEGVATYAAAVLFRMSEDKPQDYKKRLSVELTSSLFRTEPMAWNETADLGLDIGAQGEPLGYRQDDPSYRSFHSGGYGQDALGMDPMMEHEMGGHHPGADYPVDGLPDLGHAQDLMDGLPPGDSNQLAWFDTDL
Assay: FP competitive inhibition assay
Assay type: binding
Settings: Assay 2, mean ± SD (n = 3), read-out: Ki ± SD, Assay 2
// values below are reported pKi
The read-out pKi is expressed as -log10 of concentration in moles per litre.

Known results for molecules:
* COc1ccc2sc(CCc3c(CCc4ccc(Cl)cc4)c4cc(C(=O)NCC5CCCCC5)ccc4n3CCc3nn[nH]n3)nc2c1 | 5.37
* O=C(O)c1ccc2c(c1)c(CCc1ccc(Cl)c(Cl)c1)cn2CCc1nn[nH]n1 | 4.39

Here is the next item to consider.
Observed pKi, β-catenin/Tcf protein-protein interaction (Homo sapiens, UniProt P35222), COc1ccc2sc(CCc3c(CCc4ccc(Cl)cc4)c4cc(C(=O)NCc5ccno5)ccc4n3CCc3nn[nH]n3)nc2c1 : 5.54
